- experiment description: Solubility in water of salts (and free bases)
- Type: physicochemical
- recorded conditions: water; Table 1, N-H analogs; temp. by No. [°C]: 1 25.0; 2 23.0; 3 26.2; 4 25.1; 5 25.2; 6 24.1; 7 24.5; 8 24.2; 9 24.2; 10 25.7; 11 25.8; read-out: Solubility in water, Concentration in % by wt.
Record form. Attribute: solubility. Fill in for each entry.
Please give a number only; it is taken to be in mg/mL.

Give a short answer stating reported solubility for CC1(C)CN(c2ncc(C(=O)Nc3ccc(F)c(C(F)(F)F)c3)c(N)n2)C(=O)N1 [No. 3 (Table 1), reference compound] . 1.4

Return reported solubility. Input molecule: CC1(C)CN(c2ncc(C(=O)Nc3cccc(C(F)(F)F)c3)c(N)n2)C(=O)N1 [No. 1 (Table 1), reference compound] 0.4

// Input: CC1(C)CN(c2ncc(C(=O)Nc3cc(C(F)(F)F)ccc3Cl)c(N)n2)C(=O)N1 [No. 4 (Table 1), reference compound] . Output its solubility only. 4.6

Using the record for CC1NC(=O)N(c2ncc(C(=O)Nc3cccc(C(F)(F)F)c3)c(N)n2)C1C (stereo not drawn) [No. 11 (Table 1), reference compound] , state its measured solubility. 3.6

Report solubility, nothing else, for this molecule: CCCC1(C)CN(c2ncc(C(=O)Nc3cc(C(F)(F)F)ccc3Cl)c(N)n2)C(=O)N1 (stereo not drawn) [No. 8 (Table 1), reference compound] 1.3

Please report solubility for the following molecule: CC1(C)CN(c2ncc(C(=O)Nc3ccc(Cl)c(C(F)(F)F)c3)c(N)n2)C(=O)N1 [No. 5 (Table 1), reference compound] 1

* * *

- Tested on: LDL receptor mRNA
- experiment description: Stimulation of LDL receptor mRNA expression in rat livers (Northern blot)
- Type: in vivo
- recorded conditions: rat liver, 30 mg/kg, 6 hours after administration; untreated control = 100%
Structures can show the parent of a compound that is named as a salt.
Assign class by LDL receptor mRNA: not lower than 300% means 1 (yes); lower than 300% means 0 (no).

Does the reported LDL receptor mRNA for CC1(C)CN(c2ncc(C(=O)N(c3cccc(C(F)(F)F)c3)C3CCCC3)c(N)n2)C(=O)N1 fall at or above the 300% mark? 1 (yes)

Record C=CCN(C(=O)c1cnc(N2CC(C)(C)NC2=O)nc1N)c1cccc(C(F)(F)F)c1 ; criterion: LDL receptor mRNA no lower than 300%. Met? 1 (yes)

Reported LDL receptor mRNA reaches at least 300% for CC(C)N(C(=O)c1cnc(N2CC(C)(C)NC2=O)nc1N)c1cccc(C(F)(F)F)c1 [Example 4, hydrochloride] ? 0 (no)

Please tell me: is the compound CCCN(C(=O)c1cnc(N2CC(C)(C)NC2=O)nc1N)c1cccc(C(F)(F)F)c1 at or over 300% in terms of LDL receptor mRNA? 1 (yes)

* * *

- Tested on: serum lipoproteins
- experiment description: Effect on serum lipoproteins of normolipemic male rats in a subchronic experiment
- Type: in vivo
- recorded conditions: Rattus norvegicus, po, 30 mg/kg/day, by stomach tube, 7 administrations, read-out: Serum LDL cholesterol, % change from control at end of treatment
Where a name gives a salt, the structure may show the parent alone.
Grouping key: change in vivo at 30 mg/kg. Bins: 0: < -70%; 1: ≥ -70% and < -40%; 2: ≥ -40%

For this molecule, which bin applies? CCN(C(=O)c1cnc(N2CC(C)NC2=O)nc1N)c1cccc(C(F)(F)F)c1 (stereo not drawn) [Example 58, hydrochloride] 2

Class (by measured change in vivo at 30 mg/kg) for CCCN(C(=O)c1cnc(N2CC(C)(C)NC2=O)nc1N)c1cccc(C(F)(F)F)c1 1

For C=CCN(C(=O)c1cnc(N2CC(C)(C)NC2=O)nc1N)c1cccc(C(F)(F)F)c1 , which change in vivo at 30 mg/kg bin applies? 1

Could you place CCCCN(C(=O)c1cnc(N2CC(C)(C)NC2=O)nc1N)c1cccc(C(F)(F)F)c1 [Example 6, hydrochloride] in its proper category? Many thanks. 1

Band of CCN(C(=O)c1cnc(N2CC(C)(C)NC2=O)nc1N)c1cc(C(F)(F)F)ccc1F ? 0

Which change in vivo at 30 mg/kg category applies to CN(C(=O)c1cnc(N2CC(C)(C)NC2=O)nc1N)c1cc(C(F)(F)F)ccc1F here? 0

# bin lookup: classify CC(C)(C)CN(C(=O)c1cnc(N2CC(C)(C)NC2=O)nc1N)c1cccc(C(F)(F)F)c1 by its change in vivo at 30 mg/kg 0

Which category does the recorded change in vivo at 30 mg/kg put CC(C)N(C(=O)c1cnc(N2CC(C)(C)NC2=O)nc1N)c1ccc(F)c(C(F)(F)F)c1 in? 2

Pick a category. Item: CC1(C)CN(c2ncc(C(=O)N(CC3CC3)c3cccc(C(F)(F)F)c3)c(N)n2)C(=O)N1 [Example 12, hydrochloride] 1

Place this molecule in its band: CC1(C)CN(c2ncc(C(=O)N(c3cccc(C(F)(F)F)c3)C3CCCC3)c(N)n2)C(=O)N1 1

In plain terms, what class is CN(C(=O)c1cnc(N2CCNC2=O)nc1N)c1cccc(C(F)(F)F)c1 [Example 64, hydrochloride] ? 2

For the record CCCCN(C(=O)c1cnc(N2CCNC2=O)nc1N)c1cccc(C(F)(F)F)c1 [Example 55, hydrochloride] , report the class its change in vivo at 30 mg/kg corresponds to. 2

Band for CC1(C)CN(c2ncc(C(=O)N(CC3CC3)c3cc(C(F)(F)F)ccc3F)c(N)n2)C(=O)N1 ? 1

# classify by change in vivo at 30 mg/kg band: CCC(C)N(C(=O)c1cnc(N2CC(C)(C)NC2=O)nc1N)c1cccc(C(F)(F)F)c1 (stereo not drawn) [Example 8, hydrochloride] 2

Given CN(C(=O)c1cnc(N2CC(C)(C)NC2=O)nc1N)c1cc(C(F)(F)F)ccc1Cl , name the class its change in vivo at 30 mg/kg places it in. 1

Please let me know in which category the item CC(C)CN(C(=O)c1cnc(N2CC(C)(C)NC2=O)nc1N)c1cccc(C(F)(F)F)c1 belongs. 2

Dear colleague, I would appreciate it if you could identify the bin for CCN(C(=O)c1cnc(N2CC(C)(C)NC2=O)nc1N)c1cccc(C(F)(F)F)c1 [Example 2, hydrochloride] and reply at your convenience. 0

* * *

- experiment description: Solubility in water of salts (and free bases)
- Format: physicochemical
- recorded conditions: water, 23° C.; read-out: 1 part by mass dissolves in parts of water (converted)
measured metric: solubility

Indicate the recorded solubility value for this compound: CC1(C)CN(c2ncc(C(=O)Nc3cccc(C(F)(F)F)c3)c(N)n2)C(=O)N1 [No. 1 (Table 1), reference compound] 400 µg/mL

* * *

- Test system: serum lipoproteins
- experiment description: Effect on serum lipoproteins of normolipemic male rats in a subchronic experiment
- Format: in vivo
- recorded conditions: Rattus norvegicus, po, 10 mg/kg/day, by stomach tube, 7 administrations, read-out: Serum VLDL triglycerides, % change from control at end of treatment
measured metric: change in vivo at 10 mg/kg (%)
Write down the numeric answer in % and omit the unit.

State measured change in vivo at 10 mg/kg of the molecule CCN(C(=O)c1cnc(N2CC(C)(C)NC2=O)nc1N)c1cc(C(F)(F)F)ccc1F [Example 32] with serum lipoproteins. -68

Jot down change in vivo at 10 mg/kg (serum lipoproteins) of CN(C(=O)c1cnc(N2CC(C)(C)NC2=O)nc1N)c1ccc(Br)c(C(F)(F)F)c1 [Example 30] . 7

State measured change in vivo at 10 mg/kg of the molecule CCCN(C(=O)c1cnc(N2CC(C)(C)NC2=O)nc1N)c1cccc(C(F)(F)F)c1 [Example 33] with serum lipoproteins. -73

* * *

- experiment description: Solubility in water of salts (and free bases)
- Assay type: physicochemical
- recorded conditions: water; Table 1, N-H analogs; temp. by No. [°C]: 1 25.0; 2 23.0; 3 26.2; 4 25.1; 5 25.2; 6 24.1; 7 24.5; 8 24.2; 9 24.2; 10 25.7; 11 25.8; read-out: Solubility in water, Concentration in % by wt.
measured metric: solubility

Read the entry CCCC1(C)CN(c2ncc(C(=O)Nc3ccc(Cl)c(C(F)(F)F)c3)c(N)n2)C(=O)N1 (stereo not shown) [No. 9 (Table 1), reference compound] and write its reported solubility. 1300 µg/mL

Report solubility, nothing else, for this compound: COc1ccc(C(F)(F)F)cc1NC(=O)c1cnc(N2CC(C)(C)NC2=O)nc1N [No. 6 (Table 1), reference compound] 13200 µg/mL

Give me measured solubility, please, for this compound: CCCC1(C)CN(c2ncc(C(=O)Nc3cccc(C(F)(F)F)c3)c(N)n2)C(=O)N1 (stereo not shown) [No. 10 (Table 1), reference compound] 3900 µg/mL

Report solubility for COc1ccc(NC(=O)c2cnc(N3CC(C)(C)NC3=O)nc2N)cc1C(F)(F)F [No. 7 (Table 1), reference compound] 1800 µg/mL

Ref: patent US5571816A
